Give Neuraminidase activity normalized to vehicle for every item shown.
Test system: influenza A H1N1 virus
Conditions: 22,2 µM peptide, 48 hr post-treatment, A549

Check out these entries, answers already filled in.
Substance: ELLSGLQEWL [CPEP85]
Experimental Result: 0,8356
//
Substance: CPEP83: peptide of the viral peptide library; sequence page not shown (LHGLSAFSLHSYS)
Experimental Result: 0,9424
//
Substance: PVHAGPIAPGQMREP [CPEP81]
Experimental Result: 1,0319
//
Substance: FPESLIL [CPEP76]
Experimental Result: 0,787
//
Substance: AHQNSQTHQASLSKQ [CPEP43]
Experimental Result: 0,9843
//
Substance: IKQEDIKP [CPEP109]
Experimental Result: 0,889

Please state, for each entry, its recorded Neuraminidase activity normalized to vehicle.
1. ACTNCYCKKCCFHCQVC [CPEP100]
2. CPEP63: peptide of the viral peptide library; sequence page not shown (KARHKRRNRSSRS)
3. RYSKRRHGRR [CPEP118]
4. PKKKRKV [CPEP56]
5. GGLEPLSEKHFRETEV [CPEP112]

1. 1,1329
2. 0,9172
3. 0,7875
4. 0,9231
5. 1,1545
